- SYSTEM_TESTED: human recombinant mGlu1a receptor (Homo sapiens)
- Sequence (Q13255 19-1194): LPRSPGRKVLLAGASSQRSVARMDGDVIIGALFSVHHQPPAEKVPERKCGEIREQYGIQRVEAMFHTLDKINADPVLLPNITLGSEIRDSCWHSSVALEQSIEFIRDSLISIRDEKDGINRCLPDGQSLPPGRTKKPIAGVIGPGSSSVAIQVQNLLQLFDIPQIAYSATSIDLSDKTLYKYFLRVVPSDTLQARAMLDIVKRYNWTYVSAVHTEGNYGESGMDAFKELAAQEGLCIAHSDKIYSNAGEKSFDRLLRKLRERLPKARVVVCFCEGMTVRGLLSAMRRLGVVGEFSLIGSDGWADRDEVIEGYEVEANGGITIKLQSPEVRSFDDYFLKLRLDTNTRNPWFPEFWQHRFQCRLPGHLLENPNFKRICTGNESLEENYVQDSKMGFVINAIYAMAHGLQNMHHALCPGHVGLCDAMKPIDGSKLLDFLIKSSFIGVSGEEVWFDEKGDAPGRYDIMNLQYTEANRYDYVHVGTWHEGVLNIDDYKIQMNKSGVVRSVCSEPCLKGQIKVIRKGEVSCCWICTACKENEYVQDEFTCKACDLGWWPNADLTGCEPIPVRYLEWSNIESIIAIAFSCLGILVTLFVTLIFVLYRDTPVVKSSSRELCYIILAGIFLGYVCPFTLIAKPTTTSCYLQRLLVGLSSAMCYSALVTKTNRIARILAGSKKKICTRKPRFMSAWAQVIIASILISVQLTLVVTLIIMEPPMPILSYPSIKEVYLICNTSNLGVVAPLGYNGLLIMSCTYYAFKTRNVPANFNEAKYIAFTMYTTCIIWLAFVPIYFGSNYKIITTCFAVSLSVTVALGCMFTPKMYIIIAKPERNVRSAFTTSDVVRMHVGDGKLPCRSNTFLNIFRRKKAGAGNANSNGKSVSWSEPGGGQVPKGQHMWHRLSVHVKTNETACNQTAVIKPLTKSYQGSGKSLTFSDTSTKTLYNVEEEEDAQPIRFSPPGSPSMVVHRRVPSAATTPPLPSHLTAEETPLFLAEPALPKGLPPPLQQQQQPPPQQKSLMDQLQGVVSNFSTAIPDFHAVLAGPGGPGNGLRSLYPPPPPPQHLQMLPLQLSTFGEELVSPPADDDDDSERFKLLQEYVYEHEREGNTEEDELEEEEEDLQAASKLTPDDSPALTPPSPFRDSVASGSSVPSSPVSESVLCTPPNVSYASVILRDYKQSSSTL
- METHOD_NOTES: glutamate induced calcium flux (FLIPR, Fluo-3) in AV-12 cells expressing mGlu1a
- CONDITION_SUMMARY: inhibition of peak fluorescence response to glutamate at EC90% (10 μM)
ENDPOINT_LABEL: IC50

GIVEN_SMILES: COc1ccc(-c2nsc(NC(=O)[C@@H]3C[C@H]3C)c2C)cc1
ENDPOINT_LABEL: IC50
MEASUREMENT: < 20 nM

GIVEN_SMILES: Cc1c(-c2ccc(Cl)cc2)nsc1NC(=O)[C@@H]1C[C@H]1C
ENDPOINT_LABEL: IC50
MEASUREMENT: < 20 nM
